# Test system: VEGFR2 (Homo sapiens)
# Sequence (P35968 20-1356): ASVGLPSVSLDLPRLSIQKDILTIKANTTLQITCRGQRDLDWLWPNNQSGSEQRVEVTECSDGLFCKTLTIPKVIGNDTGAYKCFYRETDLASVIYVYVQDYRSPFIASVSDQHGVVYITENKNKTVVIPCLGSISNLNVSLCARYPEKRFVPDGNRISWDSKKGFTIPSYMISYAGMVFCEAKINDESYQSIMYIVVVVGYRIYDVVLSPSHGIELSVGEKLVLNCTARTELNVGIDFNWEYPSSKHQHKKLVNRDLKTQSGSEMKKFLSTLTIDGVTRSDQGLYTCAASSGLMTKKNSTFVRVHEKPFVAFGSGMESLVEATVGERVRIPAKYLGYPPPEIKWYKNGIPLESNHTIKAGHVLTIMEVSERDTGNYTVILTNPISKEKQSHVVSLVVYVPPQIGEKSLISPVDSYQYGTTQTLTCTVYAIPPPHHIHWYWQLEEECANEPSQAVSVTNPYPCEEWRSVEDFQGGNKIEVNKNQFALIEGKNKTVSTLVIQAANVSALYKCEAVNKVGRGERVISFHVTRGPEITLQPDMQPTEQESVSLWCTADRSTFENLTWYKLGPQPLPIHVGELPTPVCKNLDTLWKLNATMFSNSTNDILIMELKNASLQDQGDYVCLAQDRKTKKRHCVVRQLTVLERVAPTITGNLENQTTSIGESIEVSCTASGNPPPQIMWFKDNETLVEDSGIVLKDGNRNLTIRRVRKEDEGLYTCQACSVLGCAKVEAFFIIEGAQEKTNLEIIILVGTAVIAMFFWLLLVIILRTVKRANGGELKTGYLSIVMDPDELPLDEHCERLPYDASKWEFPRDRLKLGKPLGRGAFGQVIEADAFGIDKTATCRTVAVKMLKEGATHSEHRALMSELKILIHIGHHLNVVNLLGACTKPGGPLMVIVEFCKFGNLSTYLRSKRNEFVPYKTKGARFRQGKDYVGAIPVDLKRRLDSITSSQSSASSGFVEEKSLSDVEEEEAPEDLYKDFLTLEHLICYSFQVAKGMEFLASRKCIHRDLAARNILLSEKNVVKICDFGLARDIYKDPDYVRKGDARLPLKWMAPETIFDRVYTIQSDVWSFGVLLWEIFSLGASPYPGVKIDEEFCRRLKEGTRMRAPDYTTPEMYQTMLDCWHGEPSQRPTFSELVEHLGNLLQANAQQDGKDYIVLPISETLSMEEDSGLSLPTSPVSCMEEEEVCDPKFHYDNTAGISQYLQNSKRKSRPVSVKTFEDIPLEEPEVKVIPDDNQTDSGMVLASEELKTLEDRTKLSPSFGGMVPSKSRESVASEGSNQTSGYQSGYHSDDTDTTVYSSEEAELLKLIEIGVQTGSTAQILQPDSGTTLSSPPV
# Experiment notes: Kinase activity test (ReactionBiology), % enzyme activity relative to DMSO;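 for % Enzyme Activity (relative to DMSO controls), Data 1: VEGFR2 was one member of a ten-kinase screening panel testing marketed FDA-approved drugs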
# Type: biochemical
# Parameters: purchased ReactionBiology
# Experimental conditions: VEGFR2; 10 uM; replicate Data 1; read-out: % Enzyme Activity (relative to DMSO controls), Data 1
Measurement label: remaining activity at 10 µM

compound="N[C@@H](Cc1cc(I)c(Oc2cc(I)c(O)c(I)c2)c(I)c1)C(=O)O [Thyroxine, reference compound]" test_system="VEGFR2 (Homo sapiens)" measurement_label="remaining activity at 10 µM" reported_result=89.7%
compound=CC(=O)O[C@H]1C[C@@]2(C)[C@@H](C[C@@H](O)[C@H]3[C@@]4(C)CC[C@@H](O)[C@@H](C)[C@@H]4CC[C@@]32C)/C1=C(\CCC=C(C)C)C(=O)O test_system="VEGFR2 (Homo sapiens)" measurement_label="remaining activity at 10 µM" reported_result=96%
compound="C=CC(=O)N1CCC[C@@H](n2nc(-c3ccc(Oc4ccccc4)cc3)c3c(N)ncnc32)C1 [Ibrutinib, reference compound]" test_system="VEGFR2 (Homo sapiens)" measurement_label="remaining activity at 10 µM" reported_result=1.46%

For C[C@]12CC[C@@H]3c4ccc(O)cc4CC[C@H]3[C@@H]1CC[C@@H]2O [Estradiol, reference compound] the compound record lists remaining activity at 10 µM as 106%

----------
Each record here notes measured % Enzyme Activity (relative to DMSO controls), Data 2.
# Test system: EPHB4 (Homo sapiens, UniProt P54760)
# Construct: purchased ReactionBiology
# Sequence (P54760 16-987): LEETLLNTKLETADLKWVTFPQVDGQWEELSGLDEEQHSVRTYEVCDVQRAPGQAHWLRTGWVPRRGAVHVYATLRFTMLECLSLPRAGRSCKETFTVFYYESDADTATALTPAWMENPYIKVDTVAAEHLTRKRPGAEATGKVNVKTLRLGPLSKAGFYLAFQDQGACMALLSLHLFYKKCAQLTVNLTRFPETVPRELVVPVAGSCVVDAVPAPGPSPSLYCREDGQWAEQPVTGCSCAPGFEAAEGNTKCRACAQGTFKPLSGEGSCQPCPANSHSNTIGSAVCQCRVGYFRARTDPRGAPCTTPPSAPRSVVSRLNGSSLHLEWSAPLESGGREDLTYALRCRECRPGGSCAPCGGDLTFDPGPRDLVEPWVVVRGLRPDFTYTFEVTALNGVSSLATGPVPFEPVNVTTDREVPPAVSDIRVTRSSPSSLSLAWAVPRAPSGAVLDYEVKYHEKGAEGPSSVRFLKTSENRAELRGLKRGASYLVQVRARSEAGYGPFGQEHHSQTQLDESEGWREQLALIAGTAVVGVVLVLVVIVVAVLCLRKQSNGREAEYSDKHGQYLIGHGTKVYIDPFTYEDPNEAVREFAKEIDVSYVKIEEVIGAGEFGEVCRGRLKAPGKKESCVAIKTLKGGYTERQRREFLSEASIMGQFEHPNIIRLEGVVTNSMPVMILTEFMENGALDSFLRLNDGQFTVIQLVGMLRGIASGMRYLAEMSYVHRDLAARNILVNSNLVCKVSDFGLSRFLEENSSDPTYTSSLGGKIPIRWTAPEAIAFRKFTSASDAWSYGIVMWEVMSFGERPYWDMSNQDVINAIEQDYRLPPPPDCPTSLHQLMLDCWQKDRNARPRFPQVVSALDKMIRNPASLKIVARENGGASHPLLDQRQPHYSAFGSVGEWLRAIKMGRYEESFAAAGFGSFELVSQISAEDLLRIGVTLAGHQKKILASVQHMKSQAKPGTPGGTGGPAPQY
# Experiment notes: Kinase activity test (ReactionBiology), % enzyme activity relative to DMSO;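 for % Enzyme Activity (relative to DMSO controls), Data 2: EPHB4 was one of ten selected kinases in the screening panel, with enzyme activity expressed as a percentage of DMSO controls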
# Type: biochemical
# Experimental conditions: EPHB4; 1 uM; replicate Data 2
A number alone suffices; assume %.

Examples with their reported % Enzyme Activity (relative to DMSO controls), Data 2 follow.
compound="CCCCC1C(=O)N(c2ccccc2)N(c2ccccc2)C1=O [Phenylbutazone]" reported_result=100.92
compound="C[C@]12CCC(=O)C=C1CC[C@@H]1[C@@H]2[C@@H](O)C[C@@]2(C)[C@H]1CC[C@]2(O)C(=O)CO [Hydrocortisone]" reported_result=99.88
compound="C/C(O)=C(\\C#N)C(=O)Nc1ccc(C(F)(F)F)cc1 [Teriflunomide]" reported_result=100.74
compound="O=C1c2cccc3c2[C@H](CCC3)CN1[C@@H]1CN2CCC1CC2 [Palonosetron]" reported_result=96.26

Now, please, on to the next compound.
Param item: CS(=O)(=O)c1ccc(C2=C(c3ccccc3)C(=O)OC2)cc1 [Rofecoxib] ; param system: EPHB4 (Homo sapiens, UniProt P54760); output % Enzyme Activity (relative to DMSO controls), Data 2: 94.77

----------
# Test system: NEK2 (Homo sapiens)
# Construct: purchased ReactionBiology
# Sequence (P51955 1-445): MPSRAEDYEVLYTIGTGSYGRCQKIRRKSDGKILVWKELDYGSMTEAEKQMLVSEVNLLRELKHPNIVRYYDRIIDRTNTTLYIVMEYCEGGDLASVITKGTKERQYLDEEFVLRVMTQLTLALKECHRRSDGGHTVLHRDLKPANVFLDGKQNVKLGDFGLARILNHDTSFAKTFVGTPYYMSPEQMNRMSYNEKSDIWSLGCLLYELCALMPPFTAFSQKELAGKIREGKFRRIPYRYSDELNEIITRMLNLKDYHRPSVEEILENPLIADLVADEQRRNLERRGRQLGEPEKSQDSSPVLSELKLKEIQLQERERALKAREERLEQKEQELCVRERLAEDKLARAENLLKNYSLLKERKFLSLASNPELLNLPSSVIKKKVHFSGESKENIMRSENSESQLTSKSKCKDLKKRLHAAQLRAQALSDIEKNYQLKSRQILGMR
# Experiment notes: Kinase activity test (ReactionBiology), % enzyme activity relative to DMSO;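 for % Enzyme Activity (relative to DMSO controls), Average: FDA-approved drugs chosen by structure-based repositioning, each screened at 10 or 1 µM for kinase activity, expressed as percent of DMSO controls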
# Assay type: biochemical
# Experimental conditions: NEK2; 1 uM; Average; read-out: % Enzyme Activity (relative to DMSO controls), Average
Measurement label: remaining activity at 1 µM
The reply should read as a number followed by its unit.

compound=O=C(O)c1ccccc1O reported_result=88.2%
compound="Cc1nc(Nc2ncc(C(=O)Nc3c(C)cccc3Cl)s2)cc(N2CCN(CCO)CC2)n1 [Dasatinib, reference compound]" reported_result=81.6%
compound="Nc1ccc2cc3ccc(N)cc3nc2c1 [Proflavine, reference compound]" reported_result=104%
compound="NC(=O)c1cccnc1 [Niacinamide, reference compound]" reported_result=87.3%
compound="Cc1cccc(C)c1OCC(=O)N[C@@H](Cc1ccccc1)[C@@H](O)C[C@H](Cc1ccccc1)NC(=O)[C@H](C(C)C)N1CCCNC1=O [Lopinavir, reference compound]" reported_result=116%

Notebook: CN1CCN(CCCN2c3ccccc3Sc3ccc(Cl)cc32)CC1 [Prochlorperazine, reference compound] , remaining activity at 1 µM read as 70.1%

Recorded result, `N[C@@H](CC(=O)N1CCn2c(nnc2C(F)(F)F)C1)Cc1cc(F)c(F)cc1F` , remaining activity at 1 µM: 92.4%

compound N[C@@H](Cc1cc(I)c(Oc2cc(I)c(O)c(I)c2)c(I)c1)C(=O)O [Thyroxine, reference compound] , remaining activity at 1 µM observed: 90.2%
